Tested on: MS2 coat protein
protocol.text: apparent KD of MS2 coat protein; designed switch direction (-1 OFF switch, 1 ON switch): 1; higher = weaker reporter binding
test.context: Eterna round: R95; input ligand: microRNA oligo, concentration not stated
parameter.measured: apparent KD of MS2 coat protein (µM)
Give bare numbers, in µM.

Record excerpt, results attached:
construct.sequence	scale.unit	apparent KD of MS2 coat protein
GGUCCAGCCUGAGCUGGACAAAAGCAUGUACAUGAGGAUCACCCAUGUCAUGUACAAGCUUUUUGCUCGUCUAAAAU [Mat - hsa-mir-208a - 101] (puzzle: Sensor for hsa-mir-208a)	µM	0.0158
AGGGCCGCGGCACAGGAUAUGCACAGGUUCACAUGAGGAUCACCCAUGUGCUCUAGAUAGCUUGAGCAGAAGGGUGUCAUGGUAA [Beadi] (puzzle: Same State 2)	µM	0.0182
UUUGGGUGGCUGGAGGAUAUCCUGGUUGUUACAUGAGGAUCACCCAUGUGCCGCGCGGUGCGCUGGGAGAAGGCUGGCGGCCGUU (puzzle: Same State 2)	µM	0.0718
UGUAUACAUGAGGAUCACCCAUGUCAACGUAGUCGAGGAUAUGGGCAGCCGUGAGGCGUACUAGAAGGCGAAGAGG [JL-ss1-3.06 ViennaUCT mod] (puzzle: Same State 1)	µM	0.116
UAGCGCUGUCGAGAGGAUAUGCGGUGAUGGACAUGAGGAUCACCCAUGUUAGCGAUAGCAUUACGGUAGAAGGCUCUACAGCUGU [salish99_ss2_r3_093] (puzzle: Same State 2)	µM	0.177
GGCAGGUGCAGGCUUGCUUGCACCUGGAGACAUGAGGAUCACCCAUGUUUGGGACAAGCUUUGCUCCUCGUCUUUUC [JL ViennaUCT Isusreraar mod 7] (puzzle: Sensor for hsa-mir-208a)	µM	0.104
GCAUCACAUGAGGAUCACCCAUGUCUUCGGAGCGGAGGAUAUGGUCACUGUAAACAGUGGCCAGAAGGCUGGAUGC [SS1 - Son of Teenbexe v3] (puzzle: Same State 1)	µM	0.026
GACAAUCUAUCUGAGGAUAUCAUGAAAAAAACAUGAGGAUCACCCAUGUGCAGGAAAACUGCAUAUGAGAAGGCAGAUAGAUUGA [salish99_SS2_r3_009] (puzzle: Same State 2)	µM	0.155
GUGGUGUAGAUACAGGAUAUGUUGCUCGUAACAUGAGGAUCACCCAUGUAUGUAUGAGAAUGAAUGCAGAAGGGUGCACACCACG [Mat - Same State 2 - Mod of UCT - D77] (puzzle: Same State 2)	µM	0.106
GAGGAUGAUUUACAGGAUAUAUAGCAGAUGACAUGAGGAUCACCCAUGUAAGAGAAAGGAGGGAGAUAGAAGGGUAUGGGAUGUG [JR_SS2_Sub039] (puzzle: Same State 2)	µM	0.0215

Please give apparent KD of MS2 coat protein, item by item, for the list that follows.
1. UCUUAUAAUAAUAUAAUUCAUUUGAUAAAACAUGAGGAUCACCCAUGUCCUACUUUUUUUAAUCAUUUUAACUUUAA [The 7 c's] (puzzle: Sensor for hsa-mir-208a)
2. UACCAUAGUAUAUUGGUGCAAGCUUUUUGACAUGAGGAUCACCCAUGUACUCGUCUUAUGUGCAGUCCGUAGACUGC [JL-shm-2.22 Brourd mod] (puzzle: Sensor for hsa-mir-208a)

a:
1. 0.0626
2. 0.013

----------
Test system: MS2 coat protein
protocol.text: apparent KD of MS2 coat protein; designed switch direction (-1 OFF switch, 1 ON switch): -1; higher = weaker reporter binding
test.context: input ligand: FMN 200 uM
parameter.measured: apparent KD of MS2 coat protein
Form field: result (number plus unit)

construct.sequence	parameter.measured	observed.value
GAUUAAUGCAAGGAUAUGCUAUUAAUUUAUUUUGCAGAAGGUGCAACAUGAGGAUCACCCAUGUUGGAGGGUAU [JR_E6_Sub027] (Eterna round: R96, puzzle: Exclusion 6)	apparent KD of MS2 coat protein	34.9 nM
CCAUGGGAGCGAGGAUAUAGACCAUGGGAAGAUCUAGAAGGCGCUGACAUGAGGAUCACCCAUGUGUUCAUGAGGAGGUGGACA (Eterna round: R96, puzzle: Exclusion NG 1)	apparent KD of MS2 coat protein	73.7 nM
CGUAUGUGAGGAUAUGACAAUGGUAUCUUCGGAUACCAUUGUCAGAAGGAACAUGAGGAUCACCCAUGUAGAUC (Eterna round: R96, puzzle: Exclusion 4)	apparent KD of MS2 coat protein	161 nM
GUCUUGAUAGGAUAUACAUGAGGAUCACCCAUGUCCCACCCGUUACCUCUGACCCUAUGUAGAAGGAUCGUCUG [Exy#18] (Eterna round: R97, puzzle: Exclusion 3)	apparent KD of MS2 coat protein	30.4 nM

API: the following record is the query input.
q: Param readout= apparent KD of MS2 coat protein; system= MS2 coat protein; entry= CCUGUGCUAUAGGAUAUGGCUUAGCAAUAUGCGCCAGAAGGAUAGACAUGAGGAUCACCCAUGUACGACGAAGC [Eternabot (L2) Solution 65] (Eterna round: R97, puzzle: Exclusion 6) ; returns value.
a: 35.9 nM

----------
Record form. Attribute: apparent KD of K4 kissing-loop reporter. Fill in for each entry.
Tested on: K4 kissing-loop RNA reporter;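 further: bound reporter read as fluorescence of individual clusters on recovered sequencing chips by microscopy, with normalized cluster intensities fitted with a binding model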
protocol.text: apparent KD of K4 kissing-loop reporter; higher = weaker reporter binding
test.context: Eterna round: R107; input ligand: FMN 200 uM
Answers are plain numbers, in nM.

construct.sequence	scale.unit	observed.value
CUUAGGAGUGGUGUUGAUUAGGGAGCGGAAGGAGCGCCAAUGAUGGCAGGUAGGUCGCCGGAAUGUAGUGAUGUUGCAUAGAGGG [ExArgA.S]	nM	476
ACGCGCGCGAGUGAUGUUCGGAGCGGCUGGCAGGAUAUGUAGCAAUGCAGAAGGGUCGUGGCGCUCCCUCCUGAAGGAGGGAGCG [#2 Exclusion - FMN A Attempt #25 (HarryS)]	nM	198

API: the following record is the query input.
q: State the recorded apparent KD of K4 kissing-loop reporter for this entry: UUUAUUAAGACGGCCGCCACUGAAUUAGAGUGAUGUUCUAUAAUUUCUAAAUUAAAUUUAUUCAACAGGACCGGGUCAAUUAUUA [JR_SSTryptoB_Sub011]
a: 384

----------
Tested on: MS2 coat protein
protocol.text: apparent KD of MS2 coat protein; designed switch direction (-1 OFF switch, 1 ON switch): 1; higher = weaker reporter binding
test.context: input ligand: FMN 200 uM
parameter.measured: apparent KD of MS2 coat protein
Form field: result (number plus unit)

Record excerpt, results attached:
construct.sequence	parameter.measured	observed.value
GGCUGUUAAUUAGGAUAUGGUCACAUGAGGAUCACCCAUGUAACGAUGAUACGAUGUGGUCAAGACUAGAAGGGAUCGCUAACA [SameState NG2 #71] (Eterna round: R96, puzzle: Same State NG 2)	apparent KD of MS2 coat protein	172 nM
GCUAGAAUUAAAGCCAACAUGAGGAUCACCCAUGUAUGUUGGUAGGAUAUCGUUUGCUUUGCAAACGAGAAGGGCUAAACUAGC [JL SSNG3 1.06] (Eterna round: R96, puzzle: Same State NG 3)	apparent KD of MS2 coat protein	78.3 nM
GCUCGACGUAUGGCCUACAUGAGGAUCACCCAUGUGACUGGGCAGGAUAUCUAGAUGCAGAAUGUAGAGAAGGGCCCGUCGAGC [SameState NG3 #48] (Eterna round: R96, puzzle: Same State NG 3)	apparent KD of MS2 coat protein	244 nM

Please give apparent KD of MS2 coat protein, item by item, for the list that follows.
1. UACUUAGUGGUAGGAUAUGUAGGAUAUGGCGAGAGCUAAGCUUGGAAGUCACUUCAGCCAGAAGGACAGAAGGACCACUCUCUC [pwkr ssNG2 2FMN + F9.12] (Eterna round: R96, puzzle: Same State NG 2)
2. UGGUACAUGGGAGGAUAUCUCGUGGAGACAUGAGGAUCACCCAUGUAGAUGGCCGGUAACCGGUGAGAGAAGGCCCAUGUACCU [JL SSNG1 3.69] (Eterna round: R96, puzzle: Same State NG 2)

a:
1. 98 nM
2. 71.6 nM

----------
Record form. Attribute: apparent KD of MS2 coat protein. Fill in for each entry.
System: MS2 coat protein
protocol.text: apparent KD of MS2 coat protein; designed switch direction (-1 OFF switch, 1 ON switch): -1; higher = weaker reporter binding
test.context: input ligand: none
Form field: result (number plus unit)

Please give apparent KD of MS2 coat protein, item by item, for the list that follows.
1. UAUGGUUAAGUCAGGAUAUACAAAUAGAAAUCUGAGUAGAAGGGACAUGAGGAUCACCCAUGUAUGGUAGUGUU [Ex4 #57] (Eterna round: R97, puzzle: Brourd's mod of Exclusion 4)
2. CCUGAGGUUUGGUAGAAAACAUGAGGAUCACCCAUGUAUGUGCAGGAUAUCGACCGGCUCGCUGCCGAGAAGGGCAUCUACAUA [Eternabot solution 31] (Eterna round: R96, puzzle: Exclusion NG 3)
3. UCACAGUGAGGAUAUUUAAAAUCGGAACCAGUUACCCGGAUGAAGAAGGCACAUGAGGAUCACCCAUGUGGACG [Eternabot (L2) Solution 14] (Eterna round: R97, puzzle: Exclusion 4)

a:
1. 74.3 nM
2. 36.9 nM
3. 15.3 nM
